assay: self-splicing fitness, log relative to wild type (ln ratio); higher = more splicing; Tetrahymena group I intron in knt gene, E. coli kanamycin selection, DiMSum; sequences stand for … in CUCUCU…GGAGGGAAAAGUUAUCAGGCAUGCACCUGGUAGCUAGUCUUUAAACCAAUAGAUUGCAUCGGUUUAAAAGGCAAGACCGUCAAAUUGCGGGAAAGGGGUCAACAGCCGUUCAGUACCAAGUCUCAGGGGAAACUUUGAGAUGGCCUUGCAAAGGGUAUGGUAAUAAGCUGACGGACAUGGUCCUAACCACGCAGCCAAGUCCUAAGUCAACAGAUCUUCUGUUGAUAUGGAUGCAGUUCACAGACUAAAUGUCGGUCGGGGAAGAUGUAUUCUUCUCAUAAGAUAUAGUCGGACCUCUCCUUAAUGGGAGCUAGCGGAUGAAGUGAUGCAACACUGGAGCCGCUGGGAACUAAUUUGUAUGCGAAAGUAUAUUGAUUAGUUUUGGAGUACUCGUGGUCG; conditions: 30 °C;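 note: selection with 25 µg/mL kanamycin versus none on LB agar overnight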
Label T when self-splicing fitness (ln) is at or above -2; anything below gets F.

Answered cases to consult:
{"columns": ["entry sequence", "cat"],
 "data": [
  ["GCCGAGCAAUAUUACGUAGU", "T"],
  ["GACUAGCAAUAUUACGCACG", "T"],
  ["CCACAGCAAUAUUACGGAUA", "F"],
  ["GAUCAGCAAUAUUACGUUGU", "F"],
  ["CGCCAGCAAUAUUACGACAU", "F"]
]}

Request: Given CGAAAGCAAUAUUACGUGAA , state whether its self-splicing fitness (ln) is at least -2.
Result: F

Request: Entry to check: AAGCAGCAAUAUUACGGCUG
Result: F

Request: Entry to check: CCCCAGCAAUAUUACGUCCU
Result: F

Request: Entry to check: ACUGAGCAAUAUUACGGCGA
Result: T

Request: Entry to check: CGGCAGCAAUAUUACGAUCG
Result: F

Request: Entry to check: ACACAGCAAUAUUACGUCGU
Result: F

Request: Entry to check: AUGGAGCAAUAUUACGAUAA
Result: F

Request: Entry to check: AACUAGCAAUAUUACGAUAU
Result: T

Request: Entry to check: AACUAGCAAUAUUACGCAUU
Result: F

Request: Entry to check: UGAAAGCAAUAUUACGGUCC
Result: T

====

Measured self-splicing fitness (ln) values are reported for all entries that follow.
test: self-splicing fitness, log relative to wild type (ln ratio); higher = more splicing; Tetrahymena group I intron in knt gene, E. coli kanamycin selection, DiMSum; sequences stand for … in CUCUCU…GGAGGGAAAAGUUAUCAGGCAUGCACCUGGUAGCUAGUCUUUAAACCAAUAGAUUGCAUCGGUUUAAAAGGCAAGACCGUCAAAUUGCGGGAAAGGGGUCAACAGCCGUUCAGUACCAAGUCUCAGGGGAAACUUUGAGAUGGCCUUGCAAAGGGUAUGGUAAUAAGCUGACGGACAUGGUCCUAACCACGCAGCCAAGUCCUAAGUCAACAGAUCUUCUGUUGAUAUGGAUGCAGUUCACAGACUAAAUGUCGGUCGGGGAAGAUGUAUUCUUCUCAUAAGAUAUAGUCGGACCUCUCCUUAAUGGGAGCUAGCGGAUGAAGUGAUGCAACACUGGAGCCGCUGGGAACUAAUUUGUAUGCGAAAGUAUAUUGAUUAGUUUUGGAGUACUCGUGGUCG; conditions: 37 °C
Please give only the number in your answer, with no unit.

Below are worked cases with known answers.
{"columns": ["entry sequence", "self-splicing fitness (ln)"],
 "data": [
  ["AGGUAGCAAUAUUACGCUAG", -2.89],
  ["AGUUAGCAAUAUUACGACCC", -0.0159],
  ["GGCGAGCAAUAUUACGCCGU", -1.28]
]}

With those in mind, consider the next sequence.
Request: Bench note: what self-splicing fitness (ln) did UCUUAGCAAUAUUACGCCCG show?
Result: -1.34

====

experiment: self-splicing fitness, log relative to wild type (ln ratio); higher = more splicing; Tetrahymena group I intron in knt gene, E. coli kanamycin selection, DiMSum; sequences stand for … in CUCUCU…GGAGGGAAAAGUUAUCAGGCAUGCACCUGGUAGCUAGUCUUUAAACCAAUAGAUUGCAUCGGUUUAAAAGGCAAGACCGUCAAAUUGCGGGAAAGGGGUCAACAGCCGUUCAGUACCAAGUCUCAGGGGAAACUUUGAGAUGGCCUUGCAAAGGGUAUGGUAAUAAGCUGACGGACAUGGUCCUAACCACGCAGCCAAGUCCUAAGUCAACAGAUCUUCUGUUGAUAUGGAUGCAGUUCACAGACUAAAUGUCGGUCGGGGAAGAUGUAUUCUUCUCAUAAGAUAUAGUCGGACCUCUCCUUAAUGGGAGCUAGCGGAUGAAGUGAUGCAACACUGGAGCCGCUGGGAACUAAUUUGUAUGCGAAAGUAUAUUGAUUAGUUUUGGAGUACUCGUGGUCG; settings: 37 °C
Label Y when self-splicing fitness (ln) is at or above -1; anything below gets N.

Answered cases to consult:
{"columns": ["entry sequence", "cat"],
 "data": [
  ["CUCAAGCAAUAUUACGUUUG", "N"],
  ["GCGAAGCAAUAUUACGGGAC", "N"],
  ["UCAUAGCAAUAUUACGUUGA", "N"]
]}

Request: Given GUGUAGCAAUAUUACGUGUA , state whether its self-splicing fitness (ln) is at least -1.
Result: N

Request: Entry to check: AGUUAGCAAUAUUACGCACC
Result: Y

Request: Entry to check: UCAUAGCAAUAUUACGUCUG
Result: Y

Request: Entry to check: CAGAAGCAAUAUUACGUUCU
Result: N

Request: Entry to check: AAGCAGCAAUAUUACGAAAA
Result: N

====

assay: self-splicing fitness, log relative to wild type (ln ratio); higher = more splicing; Tetrahymena group I intron in knt gene, E. coli kanamycin selection, DiMSum; sequences stand for … in CUCUCU…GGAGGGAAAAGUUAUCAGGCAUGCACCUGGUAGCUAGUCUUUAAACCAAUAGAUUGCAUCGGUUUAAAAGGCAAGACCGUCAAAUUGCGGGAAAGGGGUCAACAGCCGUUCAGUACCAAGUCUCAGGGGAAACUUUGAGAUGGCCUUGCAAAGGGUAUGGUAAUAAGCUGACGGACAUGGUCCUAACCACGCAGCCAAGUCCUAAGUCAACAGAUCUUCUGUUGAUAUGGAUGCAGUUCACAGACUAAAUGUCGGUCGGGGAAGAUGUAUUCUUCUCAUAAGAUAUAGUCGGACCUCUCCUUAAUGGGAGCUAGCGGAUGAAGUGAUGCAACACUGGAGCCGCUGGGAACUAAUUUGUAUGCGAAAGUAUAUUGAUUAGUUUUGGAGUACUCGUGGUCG; settings: 37 °C
Label 1 when self-splicing fitness (ln) is at or above -0.9; anything below gets -1.

Answered cases to consult:
{"columns": ["entry sequence", "cat"],
 "data": [
  ["ACAAAGCAAUAUUACGGCUA", 1],
  ["CAGAAGCAAUAUUACGUAAC", -1],
  ["AGUCAGCAAUAUUACGCGCC", 1],
  ["UAAGAGCAAUAUUACGAAAC", -1],
  ["CAACAGCAAUAUUACGGGGA", -1]
]}

Request: Given GGGUAGCAAUAUUACGAUAC , state whether its self-splicing fitness (ln) is at least -0.9.
Result: 1

Request: Entry to check: CCUUAGCAAUAUUACGCGCA
Result: -1

Request: Entry to check: UAAGAGCAAUAUUACGGCAA
Result: -1

Request: Entry to check: AGUCAGCAAUAUUACGCACG
Result: 1

Request: Entry to check: UGGCAGCAAUAUUACGCACA
Result: 1

Request: Entry to check: AUUCAGCAAUAUUACGUACC
Result: 1

Request: Entry to check: UUUCAGCAAUAUUACGCGCA
Result: 1

Request: Entry to check: GGGCAGCAAUAUUACGUAUC
Result: 1

Request: Entry to check: GACUAGCAAUAUUACGACGU
Result: 1

Request: Entry to check: GGGUAGCAAUAUUACGCGUG
Result: 1

====

assay: self-splicing fitness, log relative to wild type (ln ratio); higher = more splicing; Tetrahymena group I intron in knt gene, E. coli kanamycin selection, DiMSum; sequences stand for … in CUCUCU…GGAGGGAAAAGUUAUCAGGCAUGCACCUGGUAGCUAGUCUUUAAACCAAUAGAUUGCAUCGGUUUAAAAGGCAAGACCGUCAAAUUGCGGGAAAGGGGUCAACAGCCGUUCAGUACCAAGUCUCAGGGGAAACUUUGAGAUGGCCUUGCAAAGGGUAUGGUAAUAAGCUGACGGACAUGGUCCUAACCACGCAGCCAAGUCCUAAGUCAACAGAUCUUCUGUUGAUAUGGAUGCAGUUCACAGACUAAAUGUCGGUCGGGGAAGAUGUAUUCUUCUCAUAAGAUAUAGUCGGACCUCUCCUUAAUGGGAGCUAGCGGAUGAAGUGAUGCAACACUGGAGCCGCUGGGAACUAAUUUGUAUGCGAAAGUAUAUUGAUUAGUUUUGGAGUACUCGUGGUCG; details: 30 °C
Label T when self-splicing fitness (ln) is at or above -3; anything below gets F.

Answered cases to consult:
{"columns": ["entry sequence", "cat"],
 "data": [
  ["UCCCAGCAAUAUUACGCACA", "T"],
  ["AGUCAGCAAUAUUACGCGCC", "T"],
  ["UGCAAGCAAUAUUACGGAUU", "T"]
]}

Request: Given CGCGAGCAAUAUUACGUCGA , state whether its self-splicing fitness (ln) is at least -3.
Result: F

Request: Entry to check: AACAAGCAAUAUUACGCUCU
Result: T

Request: Entry to check: GCGGAGCAAUAUUACGGUAG
Result: T

Request: Entry to check: UUGGAGCAAUAUUACGUGGG
Result: T

Request: Entry to check: CCCCAGCAAUAUUACGGGUU
Result: F

Request: Entry to check: CCUAAGCAAUAUUACGCCGA
Result: T

Request: Entry to check: CUCUAGCAAUAUUACGGCGC
Result: T

Request: Entry to check: AUGGAGCAAUAUUACGCAGU
Result: F

Request: Entry to check: CAUGAGCAAUAUUACGGAUA
Result: F

Request: Entry to check: GGCGAGCAAUAUUACGUCUU
Result: T

Request: Entry to check: GAUGAGCAAUAUUACGUCGA
Result: F

Request: Entry to check: UGUAAGCAAUAUUACGCCCA
Result: T
